The following compounds are shown together with reported tissue uptake at 6 h values.
# assay explanation: Biodistribution in Jurkat tumor-bearing CB-17 SCID mice
# Format: in vivo
# run conditions: CB-17 SCID, mouse, in vivo, iv, total radioactivity, Tumor activity 6 h p.i.
Non-standard residues stand in square brackets, D forms with d. Residues, ends and D or L forms follow the SMILES beside them. Groups on a side chain read outwards from the residue. *: point of attachment. DOTA = O=C(O)CN1CCN(CC(=O)O)CCN(CC(=O)*)CCN(CC(=O)O)CC1; dTyr(3-I) = N[C@H](Cc1ccc(O)c(I)c1)C(=O)O; 2Nal = N[C@@H](Cc1ccc2ccccc2c1)C(=O)O; dNMeOrn = CN[C@H](CCCN)C(=O)O; 4Abz = Nc1ccc(C(=O)O)cc1; dDap = NC[C@@H](N)C(=O)O
Numeric only. Scale: %ID/g

Summary for this compound, C[C@@H](NC(=O)[C@@H](CCCNC(=N)N)NC(=O)[C@@H](CN)NC(=O)CN1CCN(CC(=O)O)CCN(CC(=O)O)CCN(CC(=O)O)CC1)C(=O)Nc1ccc(C(=O)NCCC[C@@H]2C(=O)N[C@@H](CCCNC(=N)N)C(=O)N[C@@H](Cc3ccc4ccccc4c3)C(=O)NCC(=O)N[C@H](Cc3ccc(O)c(I)c3)C(=O)N2C)cc1 [CXCR4-DOTA-4 [Lu]] (cyclo([dTyr(3-I)][dNMeOrn]([4Abz-dA-dR-dDap-DOTA])R[2Nal]G)) : tissue uptake at 6 h is 7.78

Measured tissue uptake at 6 h of C[C@@H](NC(=O)[C@@H](CCCNC(=N)N)NC(=O)[C@@H](CN)NC(=O)CN1CCN(CC(=O)O)CCN(CC(=O)O)CCN(CC(=O)O)CC1)C(=O)Nc1ccc(C(=O)NCCC[C@@H]2C(=O)N[C@@H](CCCNC(=N)N)C(=O)N[C@@H](Cc3ccc4ccccc4c3)C(=O)NCC(=O)N[C@H](Cc3ccc(O)cc3)C(=O)N2C)cc1 [CXCR4-DOTA-3 [Lu]] (cyclo([dY][dNMeOrn]([4Abz-dA-dR-dDap-DOTA])R[2Nal]G)) : 6.88

----------
# tissue uptake at 1 h per record follows
# assay explanation: Biodistribution in Jurkat tumor-bearing CB-17 SCID mice
# Type: in vivo
# run conditions: CB-17 SCID, mouse, in vivo, iv, total radioactivity, Tumor activity 1 h p.i.
# Procedure: All animal experiments were conducted in accordance with general animal welfare regulations in Germany and the institutional guidelines for the care and use of animals. […] Approximately 0.5-20 MBq (0.02-0.20 nmol) of the ^125I-, ^177Lu-, ^99mTc-, ^18F- or ^68Ga-labeled ligand were injected into the tail vein of Jurkat tumor-bearing CB-17 SCID mice and the animals sacrificed after the respective biodistribution time. Selected organs were removed, weighted and measured in a γ-counter.
Non-standard residues stand in square brackets, D forms with d. Residues, ends and D or L forms follow the SMILES beside them. Groups on a side chain read outwards from the residue. *: point of attachment. DOTA = O=C(O)CN1CCN(CC(=O)O)CCN(CC(=O)*)CCN(CC(=O)O)CC1; dTyr(3-I) = N[C@H](Cc1ccc(O)c(I)c1)C(=O)O; 2Nal = N[C@@H](Cc1ccc2ccccc2c1)C(=O)O; dNMeOrn = CN[C@H](CCCN)C(=O)O; 4Abz = Nc1ccc(C(=O)O)cc1; dDap = NC[C@@H](N)C(=O)O
Quick note: give the figure in %ID/g, leave out the unit.

compound | display unit | tissue uptake at 1 h
C[C@@H](NC(=O)[C@@H](CCCNC(=N)N)NC(=O)[C@@H](CN)NC(=O)CN1CCN(CC(=O)O)CCN(CC(=O)O)CCN(CC(=O)O)CC1)C(=O)Nc1ccc(C(=O)NCCC[C@@H]2C(=O)N[C@@H](CCCNC(=N)N)C(=O)N[C@@H](Cc3ccc4ccccc4c3)C(=O)NCC(=O)N[C@H](Cc3ccc(O)cc3)C(=O)N2C)cc1 [CXCR4-DOTA-3 [Lu]] (cyclo([dY][dNMeOrn]([4Abz-dA-dR-dDap-DOTA])R[2Nal]G)) | %ID/g | 8.42

Next compound, please.
The recorded tissue uptake at 1 h for C[C@@H](NC(=O)[C@@H](CCCNC(=N)N)NC(=O)[C@@H](CN)NC(=O)CN1CCN(CC(=O)O)CCN(CC(=O)O)CCN(CC(=O)O)CC1)C(=O)Nc1ccc(C(=O)NCCC[C@@H]2C(=O)N[C@@H](CCCNC(=N)N)C(=O)N[C@@H](Cc3ccc4ccccc4c3)C(=O)NCC(=O)N[C@H](Cc3ccc(O)c(I)c3)C(=O)N2C)cc1 [CXCR4-DOTA-4 [Lu]] (cyclo([dTyr(3-I)][dNMeOrn]([4Abz-dA-dR-dDap-DOTA])R[2Nal]G)) is 6.19

----------
# assay explanation: Biodistribution in Jurkat tumor-bearing CB-17 SCID mice
# Assay type: in vivo
# run conditions: female, CB-17 SCID, mouse, in vivo, iv, total radioactivity, % iD/g Stomach
Non-standard residues stand in square brackets, D forms with d. Residues, ends and D or L forms follow the SMILES beside them. Groups on a side chain read outwards from the residue. *: point of attachment. DOTA = O=C(O)CN1CCN(CC(=O)O)CCN(CC(=O)*)CCN(CC(=O)O)CC1; dTyr(3-I) = N[C@H](Cc1ccc(O)c(I)c1)C(=O)O; 2Nal = N[C@@H](Cc1ccc2ccccc2c1)C(=O)O; dNMeOrn = CN[C@H](CCCN)C(=O)O; 4Abz = Nc1ccc(C(=O)O)cc1; dDap = NC[C@@H](N)C(=O)O
Below, each entry is listed alongside its reported tissue uptake at 48 h.
Could you give me the number in %ID/g? Just the number is fine.

compound | reported property | quantitative readout
C[C@@H](NC(=O)[C@@H](CCCNC(=N)N)NC(=O)[C@@H](CN)NC(=O)CN1CCN(CC(=O)O)CCN(CC(=O)O)CCN(CC(=O)O)CC1)C(=O)Nc1ccc(C(=O)NCCC[C@@H]2C(=O)N[C@@H](CCCNC(=N)N)C(=O)N[C@@H](Cc3ccc4ccccc4c3)C(=O)NCC(=O)N[C@H](Cc3ccc(O)cc3)C(=O)N2C)cc1 [CXCR4-DOTA-3 [Lu]] (cyclo([dY][dNMeOrn]([4Abz-dA-dR-dDap-DOTA])R[2Nal]G)) | tissue uptake at 48 h | 0.07

The value of tissue uptake at 48 h measured for the compound C[C@@H](NC(=O)[C@@H](CCCNC(=N)N)NC(=O)[C@@H](CN)NC(=O)CN1CCN(CC(=O)O)CCN(CC(=O)O)CCN(CC(=O)O)CC1)C(=O)Nc1ccc(C(=O)NCCC[C@@H]2C(=O)N[C@@H](CCCNC(=N)N)C(=O)N[C@@H](Cc3ccc4ccccc4c3)C(=O)NCC(=O)N[C@H](Cc3ccc(O)c(I)c3)C(=O)N2C)cc1 [CXCR4-DOTA-4 [Lu]] (cyclo([dTyr(3-I)][dNMeOrn]([4Abz-dA-dR-dDap-DOTA])R[2Nal]G)) turned out to be 0.23

----------
# assay explanation: Biodistribution in Jurkat tumor-bearing CB-17 SCID mice
# Format: in vivo
# run conditions: female, CB-17 SCID, mouse, in vivo, iv, total radioactivity, % iD/g Lung
Non-standard residues stand in square brackets, D forms with d. Residues, ends and D or L forms follow the SMILES beside them. Groups on a side chain read outwards from the residue. *: point of attachment. DOTA = O=C(O)CN1CCN(CC(=O)O)CCN(CC(=O)*)CCN(CC(=O)O)CC1; dTyr(3-I) = N[C@H](Cc1ccc(O)c(I)c1)C(=O)O; 2Nal = N[C@@H](Cc1ccc2ccccc2c1)C(=O)O; dNMeOrn = CN[C@H](CCCN)C(=O)O; 4Abz = Nc1ccc(C(=O)O)cc1; dDap = NC[C@@H](N)C(=O)O
Reported tissue uptake at 48 h values are given for each entry in this list.
# number only, unit %ID/g dropped from output

compound | reported property | quantitative readout
C[C@@H](NC(=O)[C@@H](CCCNC(=N)N)NC(=O)[C@@H](CN)NC(=O)CN1CCN(CC(=O)O)CCN(CC(=O)O)CCN(CC(=O)O)CC1)C(=O)Nc1ccc(C(=O)NCCC[C@@H]2C(=O)N[C@@H](CCCNC(=N)N)C(=O)N[C@@H](Cc3ccc4ccccc4c3)C(=O)NCC(=O)N[C@H](Cc3ccc(O)c(I)c3)C(=O)N2C)cc1 [CXCR4-DOTA-4 [Lu]] (cyclo([dTyr(3-I)][dNMeOrn]([4Abz-dA-dR-dDap-DOTA])R[2Nal]G)) | tissue uptake at 48 h | 0.47

Sample C[C@@H](NC(=O)[C@@H](CCCNC(=N)N)NC(=O)[C@@H](CN)NC(=O)CN1CCN(CC(=O)O)CCN(CC(=O)O)CCN(CC(=O)O)CC1)C(=O)Nc1ccc(C(=O)NCCC[C@@H]2C(=O)N[C@@H](CCCNC(=N)N)C(=O)N[C@@H](Cc3ccc4ccccc4c3)C(=O)NCC(=O)N[C@H](Cc3ccc(O)cc3)C(=O)N2C)cc1 [CXCR4-DOTA-3 [Lu]] (cyclo([dY][dNMeOrn]([4Abz-dA-dR-dDap-DOTA])R[2Nal]G)) ; tissue uptake at 48 h observed: 0.14
